experiment: NCI Yeast Anticancer Drug Screen. Data for the sgs1 mgt1 strain (AID 161);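 further: 0% = growth of cultures given vehicle only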; settings: S. cerevisiae sgs1 mgt1 strain, at 50.0 µM (retest, dose inferred, filed as 5.0)
The panel holds about 79,000 compounds, 15% with a hit somewhere; the sample as a whole holds those more often. Calls of active or inactive are those of the source. No stated cut-off is given here; in the data, active means growth inhibition above about 70%; inactive means the rest.
Outcomes: YES = active, NO = inactive

{"compound": "O=C(Cc1nc2ccc([N+](=O)[O-])cc2[nH]c1=O)C(=O)Nc1cc(Cl)c(Cl)cc1Cl", "cat": "NO"}
{"compound": "C#C[C@]1(OC(C)=O)CC[C@H]2[C@@H]3CCC4=CC(=O)CC[C@@H]4[C@H]3CC[C@@]21C", "cat": "NO"}
{"compound": "O=C1/C(=C\\c2ccccc2)C(NC2CCCCC2)c2ccccc21 (stereo not given)", "cat": "YES"}
{"compound": "CC1=C(C(=O)Nc2ccccc2C)C(c2ccccc2F)C(C(=O)Nc2ccccc2C)=C(C)N1", "cat": "NO"}
{"compound": "CC(=O)Oc1cc2c(=O)oc3c(OC(C)=O)c(OC(C)=O)c(OC(C)=O)c4c(=O)oc(c1OC(C)=O)c2c34", "cat": "NO"}

====

assay: NCI Yeast Anticancer Drug Screen. Data for the mec2-1 strain (AID 157); conditions: S. cerevisiae mec2-1 strain, at 50.0 µM (retest, dose inferred, filed as 5.0), hits give high values
About 79,000 compounds went through this panel and 15% of them were active in at least one assay; those are over-represented in the sample as a whole.
measured_parameter: growth inhibition (%)

{"compound": "O/N=C(/C[N+]12CN3CN(CN(C3)C1)C2)c1ccc(I)cc1", "unit_descriptor": "%", "test_value": 40}
{"compound": "CC(C)C1=C2CCC3(C)C(CCC4C5C6OCC5(CCC6(C)C)CCC43C)C2(C)CC1 (stereo unspecified)", "unit_descriptor": "%", "test_value": 40}
{"compound": "CC1=Nc2ccccc2C1C(Cc1ccccc1N)c1c(C)[nH]c2ccccc12 (stereo unspecified)", "unit_descriptor": "%", "test_value": 95}
{"compound": "CCC(N)(CO)CO", "unit_descriptor": "%", "test_value": 8}
{"compound": "C[n+]1c(/C=C/c2cccc([N+](=O)[O-])c2)sc2ccccc21", "unit_descriptor": "%", "test_value": 99}
{"compound": "O=C(O)CSc1ccc(N=C=S)cc1", "unit_descriptor": "%", "test_value": 91}
{"compound": "CS/C(C#N)=C(\\C#N)SC", "unit_descriptor": "%", "test_value": 27}
{"compound": "CCCn1cnc2c(SCc3ccc(Cl)cc3Cl)nc(N)nc21", "unit_descriptor": "%", "test_value": 12}
{"compound": "COc1ccc(CN2CCCN(Cc3ccc(OC)cc3OC)C2c2cc(Cl)ccc2O)c(OC)c1", "unit_descriptor": "%", "test_value": 98}
{"compound": "C=C1CC2(CCCC3(CC(=C)C(=O)O3)C2(C)C)OC1=O (stereo unspecified)", "unit_descriptor": "%", "test_value": 98}
{"compound": "O=c1c2ccccc2[nH]c2c1[nH]c1ccccc12", "unit_descriptor": "%", "test_value": 25}
{"compound": "N#CI1OC(C(F)(F)F)(C(F)(F)F)c2ccccc21", "unit_descriptor": "%", "test_value": 99}
{"compound": "CCN(CC)c1ccc(Cl)c2c1C(O)(C(C)C)C2(C)C (stereo unspecified)", "unit_descriptor": "%", "test_value": 97}
{"compound": "CC(c1ccccc1C(=O)O)c1cccc2ccccc12 (stereo unspecified)", "unit_descriptor": "%", "test_value": 91}
{"compound": "OC1CN(C2CCCCC2)CC1C1(O)CCN(C2CCCCC2)C1 (stereo unspecified)", "unit_descriptor": "%", "test_value": 5}
{"compound": "CCc1ccc(/C=C/c2ccc([N+](=O)[O-])cc2)nc1", "unit_descriptor": "%", "test_value": 41}
{"compound": "O=C1CSC2(CCN(CCCN3c4ccccc4Sc4ccc(Cl)cc43)CC2)N1", "unit_descriptor": "%", "test_value": 45}
{"compound": "CC(=O)CCCOC(C)=O", "unit_descriptor": "%", "test_value": 40}
{"compound": "C/C(=N\\NC(=O)C[n+]1ccccc1)c1sc(-c2nc(C)c(/C(C)=N/NC(=O)C[n+]3ccccc3)s2)nc1C", "unit_descriptor": "%", "test_value": 99}
{"compound": "CCOC(=O)c1c(Cl)nnc(-c2ccccc2)c1-c1ccccc1", "unit_descriptor": "%", "test_value": 99}
{"compound": "C1=C(c2ccccc2)[P+](c2ccccc2)(c2ccccc2)C=C(c2ccccc2)[P+]1(c1ccccc1)c1ccccc1", "unit_descriptor": "%", "test_value": 99}
{"compound": "NS(=O)(=O)c1ccc(N=Cc2c3ccccc3nc3cc(Cl)ccc23)cc1", "unit_descriptor": "%", "test_value": 28}
{"compound": "CCOC(=O)CN1CCCC(C(=O)CC2(O)C3(Cl)C4(Cl)C5(Cl)C(Cl)(Cl)C6(Cl)C4(Cl)C2(Cl)C6(Cl)C53Cl)C1 (stereo unspecified)", "unit_descriptor": "%", "test_value": 99}
{"compound": "CCCCCOC(=O)CSC#N", "unit_descriptor": "%", "test_value": 99}
{"compound": "CCCCCCCCCCCCCCCC1=NCCN1C", "unit_descriptor": "%", "test_value": 100}
{"compound": "[Cu+2].c1ccc2n[nH]nc2c1", "unit_descriptor": "%", "test_value": 99}
{"compound": "FC(F)(F)COP1(OCC(F)(F)F)=NP(OCC(F)(F)F)(OCC(F)(F)F)=NP(c2ccccc2)(c2ccccc2)=N1", "unit_descriptor": "%", "test_value": -1}
{"compound": "Cc1ccc(S(=O)(=O)c2cc(O)c(O)c3ccc(Br)cc23)cc1", "unit_descriptor": "%", "test_value": 98}
{"compound": "O=C(CC(=O)c1ccncc1)c1ccccc1", "unit_descriptor": "%", "test_value": 90}
{"compound": "CCOC(=O)C(C(=O)OCC)C(=O)c1ccc2c(c1)OCO2", "unit_descriptor": "%", "test_value": 75}
{"compound": "O=C(CCC(NC(=O)OCc1ccccc1)C(=O)OCc1ccccc1)NC(CSCc1ccccc1)C(=O)NCC(=O)Oc1c(Cl)c(Cl)c(Cl)c(Cl)c1Cl (stereo unspecified)", "unit_descriptor": "%", "test_value": 32}
{"compound": "COC1=CC(=O)c2ncc(Cl)cc2C1=O", "unit_descriptor": "%", "test_value": 92}
{"compound": "Nc1nccc2c1ncn2C1C=C(CO)C(O)C1O (stereo unspecified)", "unit_descriptor": "%", "test_value": 90}
{"compound": "COc1ccc(CSC(=S)Nc2ccc(Cl)c(C(F)(F)F)c2)cc1", "unit_descriptor": "%", "test_value": 16}
{"compound": "NC1c2ccccc2-c2ccc([N+](=O)[O-])cc21 (stereo unspecified)", "unit_descriptor": "%", "test_value": -24}
{"compound": "C#CCNC1=CC(=O)CCC1", "unit_descriptor": "%", "test_value": -1}
{"compound": "O=C1C(Cl)C(c2cc(Br)cc(Br)c2O)N1n1cnc2ccccc2c1=O (stereo unspecified)", "unit_descriptor": "%", "test_value": 94}
{"compound": "COc1ccc(C2c3cc4c(cc3OC(N3CCOCC3)C2C)OCO4)c(OC)c1 (stereo unspecified)", "unit_descriptor": "%", "test_value": 95}
{"compound": "COc1ccc(C(C)c2cc3c(cc2OC/C(C)=N/NC(N)=O)OCO3)cc1 (stereo unspecified)", "unit_descriptor": "%", "test_value": 99}
{"compound": "CCc1cc(-c2ccco2)c(C#N)c(=S)n1C1OC(COC(C)=O)C(OC(C)=O)C(OC(C)=O)C1OC(C)=O (stereo unspecified)", "unit_descriptor": "%", "test_value": -7}
{"compound": "CC1(C)COC(C)(C(=O)O)OC1", "unit_descriptor": "%", "test_value": -1}
{"compound": "CCOC(=O)c1c(SCC#N)n(-c2ccccc2)c(=S)n(-c2ccccc2)c1=O", "unit_descriptor": "%", "test_value": 39}
{"compound": "N/N=C(/N)SCCCCCCCCCCS/C(N)=N/N", "unit_descriptor": "%", "test_value": 78}
{"compound": "C/C(=N\\NC(=S)N1CCCC1)c1cnccn1", "unit_descriptor": "%", "test_value": 99}
{"compound": "c1ccc2c(c1)nc1cc(NC3CCCCC3)c(=NC3CCCCC3)cc-1n2C1CCCCC1", "unit_descriptor": "%", "test_value": 5}
{"compound": "COc1cc(/C=C/C2=C(C)C(=O)CC(c3cc(OC)c(OC)c(OC)c3)C2C)cc(OC)c1OC (stereo unspecified)", "unit_descriptor": "%", "test_value": 22}
